study system: T1, Human TFPI (tissue factor pathway inhibitor) (human, UniProt P10646 29-304, limits assumed)
T1 construct: Coated at 1 ug/ml on Maxisorb plates for the ELISA; For the Biacore work the human TFPI came from American Diagnostica
T1 sequence (looked up): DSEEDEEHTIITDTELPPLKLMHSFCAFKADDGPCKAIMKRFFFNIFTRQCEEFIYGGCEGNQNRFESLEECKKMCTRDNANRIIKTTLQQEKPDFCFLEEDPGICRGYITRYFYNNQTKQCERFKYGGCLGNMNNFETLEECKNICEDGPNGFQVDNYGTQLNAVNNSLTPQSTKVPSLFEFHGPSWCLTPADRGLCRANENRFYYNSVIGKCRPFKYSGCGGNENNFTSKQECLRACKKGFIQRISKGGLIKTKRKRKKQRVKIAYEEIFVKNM
assay method text: ELISA on plate-coated human TFPI; Fab expression media bound, then 1 h at 37 C in 100 mM citrate pH 6.0; amplex red
Reported TFPI ELISA signal, pH 6.0 is given for each of the following binders.
Lab note: record the figure alone, no unit after it.

Ask: What value of TFPI ELISA signal, pH 6.0 has been recorded for this entry: 2A8-g200 Fab VH-S50H (Fab, V domains shown) VH: EVQLVESGGGLVQPGGSLRLSCAASGFTFSSYGMDWVRQAPGKGLEWVSHIRGSRGSTYYADSVKGRFTISRDNSKNTLYLQMNSLRAEDTAVYYCARLYRYWFDYWGQGTLVTVSS VL: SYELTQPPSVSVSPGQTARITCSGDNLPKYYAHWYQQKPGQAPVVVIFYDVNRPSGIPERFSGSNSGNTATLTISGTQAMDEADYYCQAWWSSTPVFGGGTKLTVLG
Reply: 1640

Ask: What would you report for 2A8-g200 Fab (wild type) (Fab, V domains shown, Fab format, expressed in E. coli; also called wt gA200Fab; wild type 2A8-g200 Fab) VH: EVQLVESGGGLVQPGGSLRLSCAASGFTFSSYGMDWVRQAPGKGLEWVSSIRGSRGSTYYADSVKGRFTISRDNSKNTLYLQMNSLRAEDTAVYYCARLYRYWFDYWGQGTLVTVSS VL: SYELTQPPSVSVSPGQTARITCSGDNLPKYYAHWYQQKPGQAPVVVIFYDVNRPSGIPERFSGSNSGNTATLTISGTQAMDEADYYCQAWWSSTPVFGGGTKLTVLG ?
Reply: 5350

Ask: Entry to check: 2A8-g200 Fab VH-Y100H (Fab, V domains shown, Member of the 2A8-g200 Fab histidine scanning library) VH: EVQLVESGGGLVQPGGSLRLSCAASGFTFSSYGMDWVRQAPGKGLEWVSSIRGSRGSTYYADSVKGRFTISRDNSKNTLYLQMNSLRAEDTAVYYCARLHRYWFDYWGQGTLVTVSS VL: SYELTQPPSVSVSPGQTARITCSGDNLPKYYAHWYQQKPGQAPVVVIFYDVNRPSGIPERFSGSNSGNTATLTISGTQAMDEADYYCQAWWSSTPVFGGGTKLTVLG
Reply: 1430

Ask: Another binder to look at: 2A8-g200 Fab VL-Y31H (Fab, V domains shown, Member of the 2A8-g200 Fab histidine scanning library) VH: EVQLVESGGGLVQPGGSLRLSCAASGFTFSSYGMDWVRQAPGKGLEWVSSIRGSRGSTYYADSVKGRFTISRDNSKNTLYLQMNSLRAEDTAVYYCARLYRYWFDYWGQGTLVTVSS VL: SYELTQPPSVSVSPGQTARITCSGDNLPKYHAHWYQQKPGQAPVVVIFYDVNRPSGIPERFSGSNSGNTATLTISGTQAMDEADYYCQAWWSSTPVFGGGTKLTVLG
Reply: 133
